Give MMP assays efficacy (%) Rat Hepatocytes for every item shown.
All answers are understood in %, so give the number only.

Exercise: Given the entry `CCC/C=C/C=C/C(=O)O[C@H]1/C(=C/C(=O)OC)C[C@H]2C[C@H]([C@@H](C)O)OC(=O)C[C@H](O)C[C@@H]3C[C@H](OC(C)=O)C(C)(C)[C@](O)(C[C@@H]4C/C(=C/C(=O)OC)C[C@H](/C=C/C(C)(C)[C@]1(O)O2)O4)O3` , what MMP assays efficacy (%) Rat Hepatocytes was observed with rat primary hepatocytes?
Solution: -46

Exercise: Any idea what MMP assays efficacy (%) Rat Hepatocytes came out for `O=C1[C@H](CC[C@H](O)c2ccc(F)cc2)[C@@H](c2ccc(O)cc2)N1c1ccc(F)cc1` on rat primary hepatocytes?
Solution: -52

Exercise: Request - read-out MMP assays efficacy (%) Rat Hepatocytes | tested on rat primary hepatocytes | compound CCCCC(=O)O[C@]1(C(=O)CO)[C@H](C)C[C@H]2[C@@H]3CCC4=CC(=O)C=C[C@]4(C)[C@@]3(F)[C@@H](O)C[C@@]21C [Dexamethasone valerate]
Solution: -66

====

system: isolated rat liver mitochondria; assay: Oxygen consumption, Clark-type oxygen electrode; format: biochemical; details: 20 µM
MEASURED ATTRIBUTE: I-ADP, % of control (O2 consumption rate)

Exercise: Give its I-ADP, % of control (O2 consumption rate) value. Item: CO[C@H]1/C=C/O[C@@]2(C)Oc3c(C)c(O)c4c(O)c(c(/C=N/N5CCN(C)CC5)c(O)c4c3C2=O)NC(=O)/C(C)=C\C=C\[C@H](C)[C@H](O)[C@@H](C)[C@@H](O)[C@@H](C)[C@H](OC(C)=O)[C@@H]1C [Rifampicin, reference compound]
Solution: 71 (39.1) % of control

Exercise: For the compound Nc1ccc(N)c2c1C(=O)c1ccccc1C2=O [1,4-Diaminoanthraquinone] , what I-ADP, % of control (O2 consumption rate) is on record?
Solution: 89 (44.1) % of control

Exercise: Query (compound): CCCCCC[C@H]1C(=O)O[C@H](C)[C@H](NC(=O)c2cccc(NC=O)c2O)C(=O)O[C@@H](C)[C@@H]1OC(=O)CC(C)C [Antimycin A, reference compound] ; field requested: I-ADP, % of control (O2 consumption rate)
Solution: 15 (5.7) % of control

====

Give Emax for every item shown.
system: HepG2 cells; assay: cells; settings: Homo sapiens, HepG2, read-out: MMP assays efficacy (%) HepG2
Expressed in %, but write only the number.

Exercise: Checklist item: Emax tested on HepG2 cells, entry O=C(O)c1ccccc1Nc1cccc(C(F)(F)F)c1 [Flufenamic acid] , value?
Solution: 108

Exercise: Request: Emax, test system HepG2 cells, entry CCC(C)c1cccc(C(C)CC)c1O (centres unmarked) [2,6-Di(butan-2-yl)phenol]
Solution: 110

Exercise: Please provide the recorded Emax for CC(=O)C(Cl)(Cl)Cl [1,1,1-Trichloropropanone] , tested on HepG2 cells.
Solution: 123

Exercise: For HepG2 cells, provide Emax of C[C@H]1O[C@@H](O[C@H]2[C@@H](O)C[C@H](O[C@H]3[C@@H](O)C[C@H](O[C@H]4CC[C@@]5(C)[C@H](CC[C@@H]6[C@@H]5CC[C@]5(C)[C@@H](C7=CC(=O)OC7)CC[C@]65O)C4)O[C@@H]3C)O[C@@H]2C)C[C@H](O)[C@@H]1O [Digitoxin] please.
Solution: 97

Exercise: Checklist item: Emax tested on HepG2 cells, entry C=C(c1ccc(C(=O)O)cc1)c1cc2c(cc1C)C(C)(C)CCC2(C)C [Bexarotene, reference compound] , value?
Solution: 106

The reported measurements were obtained from paper PMC6112376.
